Please provide measured pIC50 for the entries that follow.
- TARGET_UNDER_TEST: human A2A receptors (Homo sapiens (Human))
- Sequence (P29274 whole entry): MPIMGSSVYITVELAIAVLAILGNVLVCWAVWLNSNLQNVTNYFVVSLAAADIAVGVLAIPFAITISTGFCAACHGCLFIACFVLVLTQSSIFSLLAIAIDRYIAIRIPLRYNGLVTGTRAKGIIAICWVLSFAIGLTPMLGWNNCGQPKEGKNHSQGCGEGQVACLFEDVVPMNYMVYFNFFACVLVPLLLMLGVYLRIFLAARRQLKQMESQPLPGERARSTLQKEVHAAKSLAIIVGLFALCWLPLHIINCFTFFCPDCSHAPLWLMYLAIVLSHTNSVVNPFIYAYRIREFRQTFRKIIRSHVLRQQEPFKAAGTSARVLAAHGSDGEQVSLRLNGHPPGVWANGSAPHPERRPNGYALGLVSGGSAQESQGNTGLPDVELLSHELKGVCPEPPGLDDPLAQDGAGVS
- ASSAY_TEXT: A2A antagonism in cAMP cell-based assay (LANCE cAMP, HEK293)
- CONDITION: HEK293 cells expressing human A2A receptor
Numbers only, as −log10 of the molar value.

Worked set:
COc1cc2nc(N)n3nc(C4CCC(C)N(c5cnn(C(C)C(C)O)c5)C4)nc3c2cc1F (single isomer, unassigned) [Example 238] :: 7.66
COc1cc2nc(N)n3nc([C@H]4C[C@@H](C)CN(c5cnn(CC(C)(C)O)c5)C4)nc3c2cc1F (single isomer, unassigned) :: 8.96
COc1cc2nc(N)n3nc([C@@H]4CCCN(c5cnn(C(C)(C)CO)c5)C4)nc3c2cc1F :: 8.42
COc1cc2nc(N)n3nc(C4CCC(C)N(c5cnn(C(C)(CO)CO)c5)C4)nc3c2cc1F (single isomer, unassigned) [Example 251] :: 7.40
CC1CC(c2nc3c4cc(F)cc(F)c4nc(N)n3n2)CN(c2cnn(CC(C)(C)O)c2)C1 (single isomer, unassigned) [Example 181] :: 7.80

Query :: Looking for the measured pIC50 of COc1cc2nc(N)n3nc([C@H]4CC[C@@H](C)N(c5cnn([C@@H](C)[C@H](C)O)c5)C4)nc3c2cc1F (single isomer, unassigned) , can you help?
Result :: 9.00

====

pIC50 values recorded for human A2b adenosine receptor (Homo sapiens (Human))
One number for each entry, as −log10 of the molar value.

Worked set:
COc1cc2nc(N)n3nc(C4CCCCN(c5cnn(CC(C)(C)O)c5)C4)nc3c2cc1F (single isomer, unassigned) [Example 61] :: 7.00
COc1cc(F)cc2c1nc(N)n1nc(C3CC(F)CN(c4cnn(CC5(O)CCC5)c4)C3)nc21 (single isomer, unassigned) [Example 79] :: 5.50

// moving on: another record for pIC50
Query :: Looking for the measured pIC50 of COc1cc2nc(N)n3nc([C@@H]4CCCN(c5cc(C)c(=O)n(C(F)F)c5)C4)nc3c2cc1F [Example 25] , can you help?
Result :: 7.21

====

- TARGET_UNDER_TEST: human A2B receptors (Homo sapiens (Human), UniProt P29275)
- Sequence (P29275 whole entry): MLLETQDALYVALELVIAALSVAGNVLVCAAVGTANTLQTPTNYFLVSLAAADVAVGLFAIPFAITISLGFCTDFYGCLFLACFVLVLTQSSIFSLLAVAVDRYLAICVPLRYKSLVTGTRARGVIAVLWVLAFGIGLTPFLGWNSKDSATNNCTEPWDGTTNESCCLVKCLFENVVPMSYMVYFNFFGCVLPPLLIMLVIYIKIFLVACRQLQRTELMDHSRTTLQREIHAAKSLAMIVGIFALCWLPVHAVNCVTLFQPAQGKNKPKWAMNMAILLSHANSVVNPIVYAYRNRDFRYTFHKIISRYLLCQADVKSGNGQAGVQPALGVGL
- ASSAY_TEXT: A2B antagonism in cAMP cell-based assay (LANCE cAMP, HEK293)
- CONDITION: HEK293 cells expressing human A2B receptor
pIC50: −log10 of the molar value.
The label depends only on pIC50: criterion met if it is at least 7, criterion not met if it is smaller.

CC1CC(c2nc3c4cc(F)cc(F)c4nc(N)n3n2)CN(c2cnn(CC(C)(C)O)c2)C1 (single isomer, unassigned) [Example 182] :: criterion not met

Query :: Record COc1cc2nc(N)n3nc([C@@H]4CCCN(c5cnn(C(C)C(C)O)c5C)C4)nc3c2cc1F (single isomer, unassigned) [Example 195] ; criterion: pIC50 no lower than 7. Met?
Result :: criterion not met

Query :: COc1cc2nc(N)n3nc(C4CCC(C)N(c5cnn(C(C)(C)C(C)O)c5)C4)nc3c2cc1F (single isomer, unassigned) [Example 266] , same question.
Result :: criterion not met

Query :: COc1cc(F)cc2c1nc(N)n1nc(C3CC(C)CN(c4cnn(CC(C)(C)O)c4)C3)nc21 (single isomer, unassigned) [Example 160] , same question.
Result :: criterion not met

Query :: COc1cc2nc(N)n3nc([C@@H]4C[C@H](C)CN(c5cn([C@H](C)[C@@H](C)O)nc5C)C4)nc3c2cc1F (single isomer, unassigned) , same question.
Result :: criterion not met

Query :: C[C@H]1CC[C@@H](c2nc3c4cc(F)cc(F)c4nc(N)n3n2)CN1c1cnn(C(C)(CO)CO)c1 (single isomer, unassigned) , same question.
Result :: criterion met
